# Test system: NCI/ADR-RES ovarian
# Assay Info: NCI tumour cell line growth inhibition, 48 h
Measurement Kind: TGI

Some entries whose results are on file:
Molecule	Experimental Value
COc1ccc(C(c2ccc3c(c2)OCO3)N2C(=O)CCC2C(=O)O)cc1 (stereo not drawn)	> 100 µM
CC(C)NC(=O)OCc1c(COC(=O)NC(C)C)c(-c2ccc[n+](COC(=O)C(C)(C)C)c2)n2c1CCC2	> 100 µM

Please look at the following molecule next.
Quick one: TGI of `CCN(CC)CCCNc1ncc(C)c2c1c1ccc3c(O)cccc3c1n2C` ? > 100 µM

====

# Tested on: HT29 colon
# Assay Info: NCI tumour cell line growth inhibition, 48 h
Measurement Kind: TGI

Each of the following entries comes with a recorded value; kindly state TGI for each.
1. Cc1ccc(SSCCCCCS(=O)O)cc1
2. C=CCC1C(=O)Nc2cccc3ncn(c23)C1=O (stereo not drawn)
3. Cc1cc(O)c2c(c1)CC(O)C1=C2C(=O)c2c(O)ccc(OC3CC(O)C(OC4CC(OC5CCC(O)C(C)O5)C(O)C(C)O4)C(C)O3)c2C1=O (stereo not drawn)
4. COc1cccc(Nc2nc(N)nc(N)c2N=O)c1
5. COc1ccc(C2C3=C(COC3=O)Oc3cc4c(cc32)OCO4)cc1 (stereo not drawn)
6. N#CC1(C#N)C(c2ccccc2)C=CC(c2ccc([N+](=O)[O-])cc2)C1(C#N)C#N (stereo not drawn)

1. > 100 µM
2. > 100 µM
3. 5.6 µM
4. 75.3 µM
5. 22.5 µM
6. > 38.5 µM

Return reported TGI values for all items listed beneath this line.
1. O=S(=O)(O)C(Cc1nc2ccccc2[nH]1)S(=O)(=O)OCCC1S(=O)(=O)OCCOS1(=O)=O (stereo not drawn)
2. CCOC(=O)c1ccc(Nc2nc3cc(C(F)(F)F)ccc3nc2C(=O)OCC)cc1
3. O=Nc1c(NO)ccc2nn(-c3ccccc3)nc12
4. COc1cc2c(cc1OC)-c1cc3ccc(OC)c(OC)c3c[n+]1CC2
5. Cc1ccccc1NC(=O)c1ccc([N+](=O)[O-])cc1
6. COc1cc2c3c(n(CCCN4CCCC(O)C4)c(=O)c2cc1OC)-c1cc2c(cc1C3=O)OCO2 (stereo not drawn)

1. > 100 µM
2. > 100 µM
3. > 100 µM
4. > 100 µM
5. > 100 µM
6. 9.94 µM

Given `O=c1ccnc(SCc2ccc(Cl)cc2)[nH]1` , state its recorded TGI. > 100 µM

====

# Test system: HCT-116 colon
# Assay Info: NCI tumour cell line growth inhibition, 48 h
Give TGI for every item shown.

Here is how some molecules turned out for TGI.
Molecule	Experimental Value
COc1ccc(C)cc1Nc1nnc(-c2ccc(N)cc2)s1	> 100 µM
COc1ccc(C2C(C=O)C(N3CCN(C)CC3)=Nc3nc4ccccc4n32)cc1 (centres undefined)	29.8 µM
O=C(c1ccccc1)C1C[C@H]2CO[C@H](c3ccccc3)N2C1=O (some centres undefined)	> 100 µM

Here's the next entry for you.
GET /values?readout=TGI&item= CSC1(CC(=O)N2CCCCC2)C(=O)Nc2ccccc21 (centres undefined) > 100 µM

====

# Test system: HCT-15 colon
# Assay Info: NCI tumour cell line growth inhibition, 48 h; in the data active = GI50 below about 0.43 µM; inactive = the rest
Choose one outcome from this list and give only that: active, inactive

These solved cases illustrate the format of a correct answer.
Molecule	Class Label
Cc1nc2sc(C(=O)Nc3cccc(Br)c3)c(N)c2cc1C(O)c1ccccc1 (stereo not drawn)	active
Nc1ccc(-c2ccc(-c3nc4cc(Cl)c(Cl)cc4[nH]3)cc2)cc1	active
COc1cc(/C=C2\C[C@H]3[C@@H]4CC=C5C[C@@H](OC(C)=O)CC[C@]5(C)[C@H]4CC[C@]3(C)[C@H]2OC(C)=O)ccc1OCCN1CCCCC1	inactive
COC1=C(OC)[C@]2(OC)c3c(O)c(OC)c4c(c3O[C@@]23O[C@@H](c2ccccc2)CC=C3C1=O)[C@@H](O)C[C@H](c1ccccc1)O4	active
CC[CH2][Sn]([CH2]CC)([O]C(=O)Cc1ccc(F)cc1)[O][Sn]([CH2]CC)([CH2]CC)[O]C(=O)Cc1ccc(F)cc1	active
COc1cc2c3c(n(CCCN4CCCC(O)C4)c(=O)c2cc1OC)-c1cc2c(cc1C3=O)OCO2 (stereo not drawn)	inactive

Each molecule tested received a call. Report the one for `O=C(NCCCCCCNC(=O)OCc1ccc2c(Cl)cc(Cl)c(O)c2n1)OCc1ccc2c(Cl)cc(Cl)c(O)c2n1` . active

Consider next the molecule `N#Cc1nn(-c2cc(=O)[nH]c3ccc(Br)cc23)c(N)c1C#N` in the same way. inactive

The values you see were collected from PubChem BioAssay (NCI).
